I'd be grateful if you could share measured LD50 for these entries.
# assay_info: Acute toxicity in iv dosed albino dd mouse
# Assay type: organism-based
# experimental_setup: in vivo
Numbers only, in µmol/kg.

Please state, for each entry, its recorded LD50.
1. CC(O)C(=O)O.C[C@@H]1C2Cc3ccc(O)cc3[C@@H]1CCN(C)C2
2. CC(O)C(=O)O.CN1CCC2CC(Cc3ccccc32)C1 (configuration not stated)
3. CC(O)C(=O)O.CN1CC[C@]2(C)CC(Cc3ccc(O)cc32)C1
4. Br.C[C@@H]1C2Cc3ccc(O)cc3[C@]1(C)CCN(C)C2

1. 153
2. 106
3. 67
4. 113

Hi, could you look up LD50 for each item in my list?
1. Br.CN1CC[C@@H]2CC(Cc3ccc(O)cc32)C1
2. CC(O)C(=O)O.C[C@H]1C2Cc3ccc(O)cc3[C@]1(C)CCN(C)C2
3. CC(O)C(=O)O.C[C@H]1C2Cc3ccc(O)cc3[C@@H]1CCN(C)C2

[121, 126, 184]
